# targetSystem: Substance-P receptor (Homo sapiens)
# Sequence (P25103 whole entry): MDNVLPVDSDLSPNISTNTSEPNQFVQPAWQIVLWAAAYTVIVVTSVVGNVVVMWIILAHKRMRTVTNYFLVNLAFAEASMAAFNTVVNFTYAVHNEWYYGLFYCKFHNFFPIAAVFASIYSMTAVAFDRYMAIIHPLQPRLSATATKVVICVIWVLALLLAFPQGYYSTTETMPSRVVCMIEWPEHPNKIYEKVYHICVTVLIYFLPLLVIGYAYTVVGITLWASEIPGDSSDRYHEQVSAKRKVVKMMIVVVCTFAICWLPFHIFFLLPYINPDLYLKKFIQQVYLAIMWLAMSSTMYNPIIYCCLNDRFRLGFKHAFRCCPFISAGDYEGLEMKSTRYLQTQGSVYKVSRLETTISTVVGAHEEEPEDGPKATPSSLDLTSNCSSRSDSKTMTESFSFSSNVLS
# measurementProtocol: Displacement of [3H]SP from human NK1 receptor transfected in CHO cells by liquid scintillation counting method
readoutLabel: pKi
API: returns pKi as number; meaning -log10 of concentration in mol/L.

Cc1cc(O)cc(C)c1C[C@H](N)C(=O)N[C@H](CCCNC(=N)N)C(=O)N[C@@H](Cc1ccccc1)C(=O)N[C@@H](CCCCN)C(=O)N1CC[C@@H](C(=O)N(C)Cc2cc(C(F)(F)F)cc(C(F)(F)F)c2)[C@H](c2ccccc2)C1 ... 8.92

[in] I have this compound here, `Cc1cc(O)cc(C)c1C[C@H](N)C(=O)N[C@H](CCCNC(=N)N)C(=O)N[C@H]1Cc2ccccc2CN(CCC(=O)N(C)[C@@H]2CCN(C(=O)c3cc(C(F)(F)F)cc(C(F)(F)F)c3)C[C@@H]2c2ccccc2)C1=O` , and I need its recorded pKi.
[out] 8.85

----------
# targetSystem: Delta-type opioid receptor (Rattus norvegicus)
# Sequence (P33533 whole entry): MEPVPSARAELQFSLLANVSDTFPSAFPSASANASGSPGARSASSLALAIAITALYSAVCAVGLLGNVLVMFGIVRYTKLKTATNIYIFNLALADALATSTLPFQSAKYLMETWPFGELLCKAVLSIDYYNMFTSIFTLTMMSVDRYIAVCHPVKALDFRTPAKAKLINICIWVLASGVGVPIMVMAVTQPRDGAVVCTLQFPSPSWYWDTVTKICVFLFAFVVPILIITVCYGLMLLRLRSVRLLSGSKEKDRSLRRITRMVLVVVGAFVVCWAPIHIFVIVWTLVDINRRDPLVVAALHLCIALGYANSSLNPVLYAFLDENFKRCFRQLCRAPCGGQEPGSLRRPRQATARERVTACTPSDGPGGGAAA
# measurementProtocol: Displacement of [3H]DSLET from delta opioid receptor in rat brain membrane after 2 hrs
readoutLabel: log10 of Ki (log10 of the value in nM)
// stored as log10 of Ki expressed in nM

Cc1cc(O)cc(C)c1C[C@H](N)C(=O)N[C@H](CCCNC(=N)N)C(=O)N[C@@H](Cc1ccccc1)C(=O)N[C@@H](CCCCN)CC(N)=O ... 2.46
Cc1cc(O)cc(C)c1C[C@H](N)C(=O)N[C@H](CCCNC(=N)N)C(=O)N[C@H]1Cc2ccccc2CN(CCC(=O)N2CCN([C@@H]3CCN(C(=O)c4cc(C(F)(F)F)cc(C(F)(F)F)c4)C[C@@H]3c3ccccc3)CC2)C1=O ... 1.03
Cc1cc(O)cc(C)c1C[C@H](N)C(=O)N[C@H](CCCNC(=N)N)C(=O)N[C@@H](Cc1ccccc1)C(=O)N[C@@H](CCCCN)C(=O)N1CCN([C@@H]2CCN(C(=O)c3cc(C(F)(F)F)cc(C(F)(F)F)c3)C[C@@H]2c2ccccc2)CC1 ... 2.73
Cc1cc(O)cc(C)c1C[C@H](N)C(=O)N[C@H](CCCNC(=N)N)C(=O)N[C@H]1Cc2ccccc2CN(CCC(=O)N2CC[C@@H](C(=O)N(C)Cc3cc(C(F)(F)F)cc(C(F)(F)F)c3)[C@H](c3ccccc3)C2)C1=O ... 0.85
Cc1cc(O)cc(C)c1C[C@H](N)C(=O)N[C@H](CCCNC(=N)N)C(=O)N[C@H]1Cc2ccccc2CN(CCC(=O)N(C)[C@@H]2CCN(C(=O)c3cc(C(F)(F)F)cc(C(F)(F)F)c3)C[C@@H]2c2ccccc2)C1=O ... 1.05

Let us move to another entry and its log10 of Ki.
[in] So what's the measured log10 of Ki for this one? `Cc1cc(O)cc(C)c1C[C@H](N)C(=O)N[C@H](CCCNC(=N)N)C(=O)N[C@@H](Cc1ccccc1)C(=O)N[C@@H](CCCCN)C(=O)N1CC[C@@H](C(=O)N(C)Cc2cc(C(F)(F)F)cc(C(F)(F)F)c2)[C@H](c2ccccc2)C1`
[out] 2.53

----------
# targetSystem: Delta-type opioid receptor (Mus musculus, UniProt P32300)
# Sequence (P32300 whole entry): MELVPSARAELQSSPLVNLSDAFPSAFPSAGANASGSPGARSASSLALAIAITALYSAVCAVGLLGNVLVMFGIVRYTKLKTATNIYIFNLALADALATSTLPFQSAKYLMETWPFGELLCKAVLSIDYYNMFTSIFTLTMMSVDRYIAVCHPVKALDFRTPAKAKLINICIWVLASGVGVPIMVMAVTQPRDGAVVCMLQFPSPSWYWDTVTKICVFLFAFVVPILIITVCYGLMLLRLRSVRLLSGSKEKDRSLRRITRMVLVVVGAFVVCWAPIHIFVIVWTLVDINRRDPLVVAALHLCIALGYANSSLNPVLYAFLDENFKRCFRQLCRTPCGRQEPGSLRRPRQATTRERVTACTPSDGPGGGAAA
# measurementProtocol: Agonist activity at delta opioid receptor in mouse vas deferens assessed as inhibition of electrically-stimulated muscle contraction
We label by threshold. Values of IC50 strictly beneath 10 nM are Fulfilled. Values of 10 nM and up are Not fulfilled.

Cc1cc(O)cc(C)c1C[C@H](N)C(=O)N[C@H](CCCNC(=N)N)C(=O)N[C@H]1Cc2ccccc2CN(CCC(=O)N2CC[C@@H](C(=O)N(C)Cc3cc(C(F)(F)F)cc(C(F)(F)F)c3)[C@H](c3ccccc3)C2)C1=O ... Not fulfilled

[in] Field: below-cutoff. Rule: recorded IC50 strictly less than 10 nM. Subject: `Cc1cc(O)cc(C)c1C[C@H](N)C(=O)N[C@H](CCCNC(=N)N)C(=O)N[C@@H](Cc1ccccc1)C(=O)N[C@@H](CCCCN)CC(N)=O`
[out] Fulfilled

[in] Dear colleague, could you confirm whether IC50 of `Cc1cc(O)cc(C)c1C[C@H](N)C(=O)N[C@H](CCCNC(=N)N)C(=O)N[C@@H](Cc1ccccc1)C(=O)N[C@@H](CCCCN)CC(=O)N1CC[C@@H](C(=O)N(C)Cc2cc(C(F)(F)F)cc(C(F)(F)F)c2)[C@H](c2ccccc2)C1` falls below 10 nM? Thanks.
[out] Not fulfilled

[in] Field: below-cutoff. Rule: recorded IC50 strictly less than 10 nM. Subject: `Cc1cc(O)cc(C)c1C[C@H](N)C(=O)N[C@H](CCCNC(=N)N)C(=O)N[C@@H](Cc1ccccc1)C(=O)N[C@@H](CCCCN)C(=O)N1CC[C@@H](C(=O)N(C)Cc2cc(C(F)(F)F)cc(C(F)(F)F)c2)[C@H](c2ccccc2)C1`
[out] Not fulfilled

[in] Criterion: IC50 strictly below 10 nM. Is it met by `Cc1cc(O)cc(C)c1C[C@H](N)C(=O)N[C@H](CCCNC(=N)N)C(=O)N[C@H]1Cc2ccccc2CN(CCC(=O)N2CCN([C@@H]3CCN(C(=O)c4cc(C(F)(F)F)cc(C(F)(F)F)c4)C[C@@H]3c3ccccc3)CC2)C1=O` ?
[out] Not fulfilled

Hey, just so you know, these numbers are from ChEMBL document CHEMBL3779864.
